What follows is a record of pKd for lysophosphatidic acid receptor 1 (LPA1) (Homo sapiens).
pKd: −log10 of the molar value.

Smiles Data	pKd
CCCCCCCC/C=C\CCCCCCCC(=O)OC[C@@H](O)COP(=O)(O)O	8.68
CCCCC/C=C\C/C=C\C/C=C\C/C=C\CCCC(=O)OC[C@@H](O)COP(=O)(O)O	8.59
